Provenance of the data: paper PMC9482650

# SYSTEM TESTED: CNKSR3, Q6P9H4
# Sequence (Q6P9H4 203-303): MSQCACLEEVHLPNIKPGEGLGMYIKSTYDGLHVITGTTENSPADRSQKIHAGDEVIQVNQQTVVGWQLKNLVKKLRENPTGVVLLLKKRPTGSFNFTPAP
# METHOD DESCRIPTION: holdup assay
# Design: key: below the threshold = too weak to quantify, mostly under pKd 3.1 to 4
# MEASUREMENT SETUP: plain residues with an end cap or a label only (N-terminal biotin on a linker: ttds)
MEASURE NAME: pKd

The examples below pair each entry with its known result.
> print(dat)
                          binder       measured.value
1  RHTTSTETAV [HPV30-E6, P36809]  below the threshold
2     RPLPRKVSQL [DOCK4, Q8N1I0]  below the threshold
3  QRQARSETLV [HPV59-E6, Q81964]  below the threshold
4  SGSRPSATVV [HPV73-E6, Q82005]  below the threshold
5  SKPTRRETEV [HPV35-E6, P27228]                 3.57

Ask: Report pKd for SSLQSLETSV [ATP2B4, P23634] please.
Result: below the threshold

Ask: What do we get for RLPKIKETTV [FRMPD4, Q14CM0] ?
Result: 4.24

Ask: // next record RLQRRRETQV [HPV18-E6, P06463]
Result: 4.1
